Values were extracted from patent US9938276B2.

# measured-on: human orexin-2 receptor (Homo sapiens (Human), UniProt O43614)
# Sequence (O43614 whole entry): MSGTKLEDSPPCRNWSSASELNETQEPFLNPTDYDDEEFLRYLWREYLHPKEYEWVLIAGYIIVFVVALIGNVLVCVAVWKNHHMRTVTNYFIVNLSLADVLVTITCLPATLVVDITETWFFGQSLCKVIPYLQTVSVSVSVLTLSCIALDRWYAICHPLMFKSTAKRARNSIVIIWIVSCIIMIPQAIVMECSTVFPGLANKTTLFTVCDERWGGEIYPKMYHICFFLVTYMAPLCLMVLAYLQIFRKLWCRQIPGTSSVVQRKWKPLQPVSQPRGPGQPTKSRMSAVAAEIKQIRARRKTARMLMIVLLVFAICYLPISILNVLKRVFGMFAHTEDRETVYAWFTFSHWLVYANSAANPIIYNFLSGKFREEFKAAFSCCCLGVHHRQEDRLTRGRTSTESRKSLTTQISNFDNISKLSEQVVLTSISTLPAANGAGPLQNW
# measurement-protocol: hOX2R FLIPR Ca2+ flux assay
# experimental-setup: CHO cells expressing the receptor; agonist 70 pM Ala-6,12 human orexin-A
pIC50: −log10 of the molar value.
Each entry gets not met if its pIC50 stays under 7, and met if its pIC50 is 7 or above.

Could you verify whether the entry N#Cc1ccnc(N2CC[C@@H]3CCN(C(=O)c4ccccc4OCC(F)(F)F)C[C@@H]32)c1 [Example E9] shows pIC50 of no less than 7?
not met

Try this compound next: N#Cc1ccnc(N2CC[C@@H]3CCN(C(=O)c4ncccc4-n4nccn4)C[C@@H]32)c1 [Example E20]
not met

Try this compound next: CC(C)(O)c1csc(N2CC[C@H]3CCN(C(=O)c4ccccc4-n4nccn4)C[C@@H]32)n1 [Example C1]
not met

Try this compound next: COC(=O)c1nc(N2CC[C@H]3CCN(C(=O)c4ccccc4-n4nccn4)C[C@H]32)sc1C (stereo in doubt) [Example B12]
not met

Try this compound next: COC(=O)c1csc(N2CC[C@@H]3CCN(C(=O)c4ccccc4-n4nccn4)C[C@@H]32)n1 [Example B11]
not met

Try this compound next: O=C(c1ccccc1-n1nccn1)N1CC[C@H]2CCN(c3ncnc4scnc34)[C@H]2C1 [Example A13]
not met

Try this compound next: Cc1cnc(C)c(N2CC[C@@H]3CCN(C(=O)c4ccccc4-n4nccn4)C[C@@H]32)n1 [Example B22]
not met

Try this compound next: CCOc1ncccc1C(=O)N1CC[C@H]2CCN(c3cc(C#N)ccn3)[C@H]2C1 [Example E6]
not met

Try this compound next: O=C(c1ccccc1-n1nccn1)N1CC[C@H]2CCN(c3cncc4ccccc34)[C@H]2C1 [Example B23]
not met

Try this compound next: N#Cc1ccnc(N2CC[C@@H]3C[C@@H](CO)N(C(=O)c4ccccc4-n4nccn4)C[C@@H]32)c1 [Example G1]
met

Try this compound next: O=C(c1ccccc1-n1nccn1)N1CC[C@H]2CCN(c3ncnc4sccc34)[C@H]2C1 [Example B15]
not met

Try this compound next: N#Cc1cc(N2CC[C@@H]3CCN(C(=O)c4ccccc4-n4nccn4)C[C@@H]32)ncc1F [Example B5]
not met

Try this compound next: Cc1cc(C#N)nc(N2CC[C@@H]3CCN(C(=O)c4ccccc4-n4nccn4)C[C@@H]32)n1 [Example A4]
not met

Try this compound next: N#Cc1ccnc(N2CC[C@@H]3CCN(C(=O)c4ccccc4-n4nccn4)C[C@@H]32)n1 [Example A3]
not met

Try this compound next: O=C(c1ccccc1-n1nccn1)N1CC[C@H]2CCN(c3nccc4ncccc34)[C@H]2C1 [Example B8]
not met

Try this compound next: N#Cc1ccnc(N2CC[C@@H]3CCN(C(=O)c4cccnc4CC(F)(F)F)C[C@@H]32)c1 [Example E11]
not met

Try this compound next: O=C(c1ccccc1-n1nccn1)N1CC[C@H]2CCN(c3nccc4ccccc34)[C@H]2C1 [Example B9]
met

Try this compound next: CC(C)Oc1ncccc1C(=O)N1CC[C@H]2CCN(c3cc(C#N)ccn3)[C@H]2C1 [Example E19]
not met

Try this compound next: CC(C)(O)c1cccc(N2CC[C@@H]3CCN(C(=O)c4ccccc4-n4nccn4)C[C@@H]32)c1 [Example C4]
met

Try this compound next: C[C@H]1C[C@H]2CCN(c3cc(C#N)ccn3)[C@H]2CN1C(=O)c1ccccc1-n1nccn1 [Example H1]
met

Try this compound next: O=C1OCc2c1ccnc2N1CC[C@@H]2CCN(C(=O)c3ccccc3-n3nccn3)C[C@@H]21 [Example B19]
not met

Try this compound next: COC(=O)c1ccc(N2CC[C@@H]3CCN(C(=O)c4ccccc4-n4nccn4)C[C@@H]32)nn1 [Example A12]
not met
